Cited source: patent US20260108527A1

# target-entity: human recombinant PLK4 (Homo sapiens)
# Sequence (O00444 1-970): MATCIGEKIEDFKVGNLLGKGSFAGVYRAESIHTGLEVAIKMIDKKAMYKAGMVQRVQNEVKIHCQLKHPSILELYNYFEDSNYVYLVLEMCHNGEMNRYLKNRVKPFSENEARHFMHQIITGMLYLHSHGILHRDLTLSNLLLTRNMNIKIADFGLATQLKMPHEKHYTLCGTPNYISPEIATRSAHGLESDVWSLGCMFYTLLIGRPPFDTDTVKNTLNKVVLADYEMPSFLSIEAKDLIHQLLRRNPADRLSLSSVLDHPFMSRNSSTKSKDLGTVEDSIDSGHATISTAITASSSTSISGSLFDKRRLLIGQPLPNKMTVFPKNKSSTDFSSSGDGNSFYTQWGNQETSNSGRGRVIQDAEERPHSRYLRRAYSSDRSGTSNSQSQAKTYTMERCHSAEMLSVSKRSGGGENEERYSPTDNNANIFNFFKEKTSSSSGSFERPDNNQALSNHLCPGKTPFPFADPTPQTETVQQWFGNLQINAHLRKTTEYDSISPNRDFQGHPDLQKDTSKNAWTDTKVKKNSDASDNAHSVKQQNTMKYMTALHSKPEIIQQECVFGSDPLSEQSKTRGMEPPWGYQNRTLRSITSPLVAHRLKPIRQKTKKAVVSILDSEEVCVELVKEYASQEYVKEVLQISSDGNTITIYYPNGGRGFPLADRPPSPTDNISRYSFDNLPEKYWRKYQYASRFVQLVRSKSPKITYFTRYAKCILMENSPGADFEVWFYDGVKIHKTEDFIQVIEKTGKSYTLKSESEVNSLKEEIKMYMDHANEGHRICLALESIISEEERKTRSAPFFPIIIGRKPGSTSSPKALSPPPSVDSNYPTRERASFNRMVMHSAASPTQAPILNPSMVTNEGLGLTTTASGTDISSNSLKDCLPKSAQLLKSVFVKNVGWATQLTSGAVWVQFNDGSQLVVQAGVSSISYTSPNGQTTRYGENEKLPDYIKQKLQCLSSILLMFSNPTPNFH
# assay-name: PLK4 Biochemical Assay (ADP-Glo)
# assay-context: 0.5 nM PLK4, 8.0 μM ATP, 4.7 μM MBP, 6 hours at RT

- molecule-smiles: "COc1ccc2c(c1)[C@]1(C[C@H]1c1ccc3c(Nc4cc(-c5cscn5)ccc4OC)n[nH]c3c1)C(=O)N2"
  target-entity: "human recombinant PLK4 (Homo sapiens)"
  IC50 / nM: 0.65
- molecule-smiles: "COc1ccc2c(c1)[C@]1(C[C@H]1c1ccc3c(Nc4cc(-c5nccs5)ccc4OC)n[nH]c3c1)C(=O)N2"
  target-entity: "human recombinant PLK4 (Homo sapiens)"
  IC50 / nM: 0.639
- molecule-smiles: "COc1ccc2c(c1)[C@]1(C[C@H]1c1ccc3c(Nc4cc(-c5nnn(C)n5)ccc4OC)n[nH]c3c1)C(=O)N2"
  target-entity: "human recombinant PLK4 (Homo sapiens)"
  IC50 / nM: 2.6
- molecule-smiles: "CCOc1cc2ccccc2nc1Nc1n[nH]c2cc([C@@H]3C[C@@]34C(=O)Nc3ccc(OC)cc34)ccc12"
  target-entity: "human recombinant PLK4 (Homo sapiens)"
  IC50 / nM: 1.83
- molecule-smiles: "COc1ccc2c(c1)[C@]1(C[C@H]1c1ccc3c(Nc4cc(-c5cnco5)ccc4OC)n[nH]c3c1)C(=O)N2"
  target-entity: "human recombinant PLK4 (Homo sapiens)"
  IC50 / nM: 0.71
- molecule-smiles: "COc1ccc2c(c1)[C@]1(C[C@H]1c1ccc3c(Nc4cc(-c5cnn(CC(F)F)c5)cnc4OC)n[nH]c3c1)C(=O)N2"
  target-entity: "human recombinant PLK4 (Homo sapiens)"
  IC50 / nM: 1.25
- molecule-smiles: "CCOc1cc(-n2cncn2)ccc1Nc1n[nH]c2cc([C@@H]3C[C@@]34C(=O)Nc3ccc(OC)cc34)ccc12"
  target-entity: "human recombinant PLK4 (Homo sapiens)"
  IC50 / nM: 0.557

* * *

# target-entity: human recombinant Aurora A (Homo sapiens)
# Construct: purchased ThermoFisher PR5935A
# Sequence (O14965 1-403): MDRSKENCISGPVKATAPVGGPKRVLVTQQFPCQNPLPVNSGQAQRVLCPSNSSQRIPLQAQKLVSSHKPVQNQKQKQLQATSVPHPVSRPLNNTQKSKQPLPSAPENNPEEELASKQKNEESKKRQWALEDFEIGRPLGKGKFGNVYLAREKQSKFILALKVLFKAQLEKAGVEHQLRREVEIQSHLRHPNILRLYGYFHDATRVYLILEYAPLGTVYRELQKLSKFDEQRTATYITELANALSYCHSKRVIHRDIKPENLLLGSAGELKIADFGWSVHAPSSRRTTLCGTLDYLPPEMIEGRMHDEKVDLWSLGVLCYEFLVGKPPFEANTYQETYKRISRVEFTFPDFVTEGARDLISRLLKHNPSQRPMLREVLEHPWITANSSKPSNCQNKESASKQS
# assay-name: Aurora A Kinase Biochemical Assay (ADP-Glo)
# assay-context: selectivity ratio; Aurora A 2.5 nM, 20 μM ATP
# [Aurora A IC50 (nM)]/[PLK4 IC50 (nM)] values compiled below
parameter: [Aurora A IC50 (nM)]/[PLK4 IC50 (nM)]

- compound: "COc1ccc2c(c1)[C@]1(C[C@H]1c1ccc3c(Nc4cc(-c5cnn(C)c5)ncc4OC)n[nH]c3c1)C(=O)N2 [Example 27]"
  target-entity: "human recombinant Aurora A (Homo sapiens)"
  parameter: "[Aurora A IC50 (nM)]/[PLK4 IC50 (nM)]"
  measured: 360.5487
- compound: "CCOc1ncc(-c2nccs2)cc1Nc1n[nH]c2cc([C@@H]3C[C@@]34C(=O)Nc3ccc(OC)cc34)ccc12 [Example 41]"
  target-entity: "human recombinant Aurora A (Homo sapiens)"
  parameter: "[Aurora A IC50 (nM)]/[PLK4 IC50 (nM)]"
  measured: 4711.9113
- compound: "COc1ccc2c(c1)[C@]1(C[C@H]1c1ccc3c(Nc4cc(-c5nnn(C)n5)ccc4OC)n[nH]c3c1)C(=O)N2 [Example 21]"
  target-entity: "human recombinant Aurora A (Homo sapiens)"
  parameter: "[Aurora A IC50 (nM)]/[PLK4 IC50 (nM)]"
  measured: 1900
- compound: "COc1ccc2c(c1)[C@]1(C[C@H]1c1ccc3c(Nc4cc(-c5cnn(C)c5)ccc4OC)n[nH]c3c1)C(=O)N2 [Example 11]"
  target-entity: "human recombinant Aurora A (Homo sapiens)"
  parameter: "[Aurora A IC50 (nM)]/[PLK4 IC50 (nM)]"
  measured: 897.6923

* * *

# target-entity: human recombinant PLK4 (Homo sapiens)
# Sequence (O00444 1-970): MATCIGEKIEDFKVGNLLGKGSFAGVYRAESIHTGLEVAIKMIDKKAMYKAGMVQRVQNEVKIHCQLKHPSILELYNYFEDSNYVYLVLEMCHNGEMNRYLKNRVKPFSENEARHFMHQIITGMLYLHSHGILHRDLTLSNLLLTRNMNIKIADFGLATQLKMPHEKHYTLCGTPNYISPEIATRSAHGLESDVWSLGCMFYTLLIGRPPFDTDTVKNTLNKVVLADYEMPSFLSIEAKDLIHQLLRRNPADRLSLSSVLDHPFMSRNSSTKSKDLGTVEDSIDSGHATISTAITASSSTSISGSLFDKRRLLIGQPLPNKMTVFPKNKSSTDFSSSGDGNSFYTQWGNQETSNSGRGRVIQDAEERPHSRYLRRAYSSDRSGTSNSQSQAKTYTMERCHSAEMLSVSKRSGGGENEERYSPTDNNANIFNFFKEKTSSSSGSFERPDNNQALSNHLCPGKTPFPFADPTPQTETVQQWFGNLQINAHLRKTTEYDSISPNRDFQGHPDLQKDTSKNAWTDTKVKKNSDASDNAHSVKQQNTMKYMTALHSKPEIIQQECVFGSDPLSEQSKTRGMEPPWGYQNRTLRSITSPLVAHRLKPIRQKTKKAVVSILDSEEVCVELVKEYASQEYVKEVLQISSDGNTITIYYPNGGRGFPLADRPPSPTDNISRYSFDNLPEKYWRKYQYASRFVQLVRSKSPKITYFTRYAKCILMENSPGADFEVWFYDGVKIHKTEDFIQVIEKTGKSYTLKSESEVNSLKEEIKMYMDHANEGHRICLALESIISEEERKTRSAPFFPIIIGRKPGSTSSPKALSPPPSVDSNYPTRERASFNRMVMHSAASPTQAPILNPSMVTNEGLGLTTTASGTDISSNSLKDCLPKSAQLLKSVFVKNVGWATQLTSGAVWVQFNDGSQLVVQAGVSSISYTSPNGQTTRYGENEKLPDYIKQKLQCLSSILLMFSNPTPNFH
# assay-name: PLK4 Biochemical Assay (ADP-Glo)
# assay-context: 0.5 nM PLK4, 8.0 μM ATP, 4.7 μM MBP, 6 hours at RT
pIC50: −log10 of the molar value.
# pIC50 values compiled below

- molecule-smiles: "CCOc1cnc(-c2nccs2)nc1Nc1n[nH]c2cc([C@@H]3C[C@@]34C(=O)Nc3ccc(OC)cc34)ccc12"
  pIC50: 9.80
- molecule-smiles: "COc1ccc2c(c1)[C@]1(C[C@H]1c1ccc3c(Nc4cc5c(cc4OC)S(=O)(=O)C=C5)n[nH]c3c1)C(=O)N2"
  pIC50: 9.02
- molecule-smiles: "CCOc1ccc(-c2cnn(C)c2)cc1Nc1n[nH]c2cc([C@@H]3C[C@@]34C(=O)Nc3ccc(OC)cc34)ccc12"
  pIC50: 8.75
